What TGI was measured for each of the following?
- System: SK-MEL-5 melanoma
- protocol: NCI tumour cell line growth inhibition, 48 h

Q: Missing value: TGI, SK-MEL-5 melanoma, entry "O=C(Nc1ccncc1)C(=O)c1cn(S(=O)(=O)c2ccccc2F)c2ccccc12" . Fill in?
A: 16.2 µM

Q: Lookup: TGI / SK-MEL-5 melanoma / "CCOC(=O)NC(=O)c1cn(CCCOC(=O)CCCCCCCCC(=O)OCCCn2cc(C(=O)NC(=O)OCC)c(=O)[nH]c2=O)c(=O)[nH]c1=O"
A: > 100 µM

Q: Query for SK-MEL-5 melanoma: what TGI does the record show for C=C(Br)C(Cl)(CBr)CCC(Br)C(C)(C)Cl (centres undefined) ?
A: > 10 µM

Q: // fetch SK-MEL-5 melanoma TGI for "O=C(O)c1ccc(NS(=O)(=O)c2cccc3cccnc23)cc1"
A: > 100 µM

Q: Lab note: need TGI with SK-MEL-5 melanoma for entry "O=C(Nc1cc(Cl)ccc1O)c1cccc(NC2=C(Cl)C(=O)N(Cc3ccccc3)C2=O)c1" , please look it up.
A: 31.5 µM

Q: Return TGI measured with SK-MEL-5 melanoma given this compound: "COc1ccc2c(-c3ccc(O)cc3)c(Oc3ccccc3)c(=O)oc2c1"
A: > 52 µM

Q: // lookup TGI | system=SK-MEL-5 melanoma | key= "Cc1ccc(-c2c(C#N)c(S)n(NS(=O)(=O)c3ccccc3)c(=O)c2C#N)cc1"
A: 69.4 µM

Q: Entry "COc1cccc(NC(=O)N/C(=C/c2ccc(N(CCC#N)CCC#N)cc2)NC(=O)c2cc([N+](=O)[O-])ccc2Cl)c1" , system SK-MEL-5 melanoma: what TGI was measured?
A: > 100 µM

Q: Under SK-MEL-5 melanoma: TGI value of "O=C(/C=C/c1ccc(Cl)c(Cl)c1)CCN1CCN(CCC(=O)/C=C/c2ccc(Cl)c(Cl)c2)CC1" ?
A: 38.2 µM

Q: Hi! What's the reported TGI for "COc1ccc(NC(C)=O)c(C(=O)CCNC(C)=O)c1" on SK-MEL-5 melanoma?
A: > 100 µM

Q: Please provide the recorded TGI for "Nc1ncc(-c2ccc(C(F)(F)F)cc2)c(NC2CCCCCC2)n1" , tested on SK-MEL-5 melanoma.
A: 35 µM

Q: For the record "COc1cccc(/C=C/C(=O)c2cc3c(N)c(C(=O)Nc4cccc(Cl)c4C)sc3nc2C)c1" , what value of TGI is listed for SK-MEL-5 melanoma?
A: 2.34 µM

Q: Record "Cl.Fc1c[c-]c(-c2ccccn2)c(F)c1.[Pt].c1ccc([PH+](CC[PH+](c2ccccc2)c2ccccc2)c2ccccc2)cc1" : what is its TGI with SK-MEL-5 melanoma?
A: 0.261 µM

Q: API: value(readout= TGI, system= SK-MEL-5 melanoma, query= "N#CC1(c2nc3ccccc3o2)C(=O)C(=O)N(c2ccc(Cl)c(Cl)c2)C(=O)C1=O" )
A: > 100 µM

###

- Tested on: OVCAR-4 ovarian
- protocol: NCI tumour cell line growth inhibition, 48 h
attribute measured: TGI

Q: Please give the measured TGI for this molecule: "CC(=O)OC[C@@H]1[C@H]2CC(=O)O[C@H]2C[C@H]1OC(C)=O"
A: > 100 µM

Q: Given the entry O=C1NC(N/N=C/C(O)C(O)C(O)C(O)CO)=N/C1=C\c1cccs1 (configuration not stated) , report its measured TGI.
A: > 100 µM

Q: Using the record for "COc1ccccc1/C=C1/Sc2scc(CC(=O)Nc3ccccc3)[n+]2C1=O" , report its TGI.
A: > 100 µM

Q: Entry under review: "CC(C)(N=NC(C)(C)C1=NCCN1)C1=NCCN1" . Reported TGI?
A: > 100 µM

Q: Tell me the measured TGI of COc1ccc(S(=O)Cc2cc(OC)ccc2OC)cc1 (configuration not stated) , please.
A: > 100 µM

Q: Look up TGI for this molecule: "Cc1ccc(C2=Nc3ccccc3NC(=O)C2)cc1"
A: > 100 µM

Q: Quick check: TGI of "COc1ccc2c(-c3ccc(O)cc3)c(Oc3ccccc3)c(=O)oc2c1" ?
A: > 100 µM

Q: What does the record list as TGI for "Cc1cc(-c2nc3ccc(O)cc3s2)ccc1N" ?
A: > 100 µM

Q: # lookup: TGI of Clc1cc(Cl)cc(N2N=C(c3cccc(Nc4ccncc4)c3)CC2c2ccc(Br)cc2)c1 (configuration not stated)
A: 2.96 µM

Q: What value of TGI has been recorded for this entry: "O=C(N/N=C/c1ccc(O)cc1O)c1ccc(Nc2ccnc(C(F)(F)F)c2)cc1"
A: > 100 µM

Q: Form field: reported TGI of "c1ccc(-c2cc(-c3cc(-c4ccccc4)n[nH]3)[nH]n2)cc1"
A: > 100 µM

Q: Fill in the blank: the reported TGI of "Cc1cc2c(C(N)=O)cccc2n1-c1nc2c(c(NCc3ccccc3)n1)CCCN2" is ____.
A: 0.396 µM

Q: Reported TGI, molecule "O=C(/C(Cl)=C/c1ccccc1)c1ccccc1" : ____
A: 16.9 µM

Q: Name the recorded TGI for "Cn1c(=O)c2[nH]c(COCc3nc4c([nH]3)c(=O)n(C)c(=O)n4C)nc2n(C)c1=O" .
A: > 100 µM

Q: // returns reported TGI for input "O=c1[nH]nc2c3c(cccc13)NC(CN1Cc3ccccc3C1)=N2"
A: > 100 µM

Q: Fill in: TGI of "O=C(c1ccco1)N1CCN(C(=O)c2ccco2)C1=S" is ___
A: 35.2 µM

Q: Given the molecule CCOC(=O)NC(N(C)C(C(C)C)P(=O)(OCC)OCC)(C(F)(F)F)C(F)(F)F (configuration not stated) , what is its reported TGI?
A: > 100 µM

###

Would you mind telling me the reported log10(TGI) of each entry?
- Tested on: HOP-62 NSCLC
- protocol: NCI tumour cell line growth inhibition, 48 h
Lab note - TGI converted to log10 from values in µM.

Q: // lookup log10(TGI) for "C/C(=N/NC(=S)N(Cc1ccccn1)Cc1ccccn1)c1cnccn1"
A: 1.16

Q: Look at this compound and give its reported log10(TGI). "Cc1c(C(=O)CC(=O)C(=O)Nc2cccc(C(F)(F)F)c2)[n+](=O)c2ccccc2n1[O-]"
A: 1.76

Q: Look up log10(TGI): "Cc1cc(S(=O)(=O)NC#N)c(S/C(=N\Nc2ccc([N+](=O)[O-])cc2)c2ccccc2)cc1Cl"
A: 1.51

Q: Item under review: "Cc1ccc(NC2=C(Sc3ccc(Cl)cc3)C(=O)N(Cc3ccccc3)C2=O)cc1Cl" . Reported log10(TGI)?
A: 1.02

Q: Can you share its log10(TGI)? I mean this compound: N#CSCC1CC(O)(c2ccccc2)C(c2ccccc2)C(c2ccc(F)cc2)O1 (stereo unspecified)
A: 1.39

Q: # lookup: log10(TGI) of "COc1cccc(/C=C/C(=O)c2cc3c(N)c(C(=O)Nc4cccc(Cl)c4C)sc3nc2C)c1"
A: 0.67

Q: What value of measured log10(TGI) is listed for C=C1C(=O)O[C@@H]2C[C@@H](C)[C@@H]3[C@@H](OC4OC(COC(C)=O)C(O)C(O)C4O)CC(=O)[C@@]3(C)C[C@H]12 (stereo partly specified) ?
A: 1.50

Q: Look up log10(TGI) for this compound: COC1CC(OS(=O)(=O)c2ccc(C)cc2)C(OS(=O)(=O)c2ccc(C)cc2)C(COS(=O)(=O)c2ccc(C)cc2)O1 (stereo unspecified)
A: 0.71

###

I'd appreciate it if you could supply TGI values for the items below.
- Tested on: EKVX NSCLC
- protocol: NCI tumour cell line growth inhibition, 48 h

Q: Provide the documented TGI with EKVX NSCLC as the system for C=CCN1C(=O)/C(=C/c2cccs2)N=C1SC1OC(COC(=O)c2ccccc2)C(OC(=O)c2ccccc2)C1OC(=O)c1ccccc1 (configuration not stated)
A: > 100 µM

Q: Query the reported TGI for EKVX NSCLC; item: "Cc1c(Cl)cccc1NC(=O)c1sc2nc3c(cc2c1N)CCCCCC3"
A: > 50 µM

Q: For EKVX NSCLC, provide TGI of "N#C[C@](CO)(NC(=O)OCc1ccccc1)C(F)F" please.
A: > 100 µM

Q: Recorded TGI for "Cc1ccc(-c2c(C#N)c(S)n(NS(=O)(=O)c3ccccc3)c(=O)c2C#N)cc1" with EKVX NSCLC, please?
A: > 100 µM

Q: Give TGI (EKVX NSCLC) of the following compound: "O=C(c1ccco1)N1CCN(C(=O)c2ccco2)C1=S"
A: 36.7 µM

Q: // lookup TGI | system=EKVX NSCLC | key= "O/N=C1\CC2(N3CCOCC3)CCC1(Cc1ccccc1)CC2"
A: > 100 µM

Q: Tell me reported TGI for "Cn1c2ccccc2c2nnc(N/N=C/c3ccccn3)nc21" , tested with EKVX NSCLC.
A: > 32 µM

Q: Value wanted: TGI (EKVX NSCLC) of entry "CN(C)c1ccc(/C=C2\N=C(c3ccc(N)cc3)OC2=O)cc1"
A: > 100 µM

Q: Kindly state the measured TGI obtained for "CN1CCN(Cc2ccc(NC(=O)c3[nH]ncc3Nc3ncnc4c3CCC4)cc2)CC1" with EKVX NSCLC.
A: 6.6 µM

Q: Enter reported TGI observed with EKVX NSCLC for COC(=O)CC1(O)C(C=C(C)C)C(C(=O)OC)C(=O)C(C(=O)OC)C1C(=O)OC (configuration not stated)
A: > 100 µM

Q: TGI of "CC(C)(C)OC(=O)/C=C/C(=O)O/C=C/[N+](=O)[O-]" on EKVX NSCLC?
A: > 100 µM

Q: What reported TGI corresponds to "COc1cc(-c2cn(-c3ccc(Cl)cc3)c(=O)[nH]2)cc(OC)c1OC" on EKVX NSCLC?
A: > 100 µM
